tested on: biotinyl-Met-oxazolone; assay: self-aminoacylation, catalytic enhancement (BMO) (fold over background); higher = more active; k-Seq, kA / k0A0; sequences stand for … in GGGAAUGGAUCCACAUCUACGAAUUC…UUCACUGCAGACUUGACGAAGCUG
Fewer inactive variants are shown than the library holds.
endpoint-label: self-aminoacylation
API note: the answer field is a bare number with no unit suffix.

Use these answered entries as a reference point.
[[record]]
sequence_data = "ACUACCCUGGUCAUGGAGUGA [Fam2.1 aminoacylation ribozyme variant]"
endpoint_label = "self-aminoacylation"
value_observed = 3.35

[[record]]
sequence_data = "ACGCUUGCUAAUAGUCGCAAG [Fam3.1 aminoacylation ribozyme variant]"
endpoint_label = "self-aminoacylation"
value_observed = 2.29

[[record]]
sequence_data = "CUACUUCAAACACUCGGUGUG [Fam1A.1 aminoacylation ribozyme variant]"
endpoint_label = "self-aminoacylation"
value_observed = 1.72

[[record]]
sequence_data = "CCACACUUCAACCAUUCGGUC [Fam1B.1 aminoacylation ribozyme variant]"
endpoint_label = "self-aminoacylation"
value_observed = 1.52


Reported self-aminoacylation for CGACUUCAAACAAUCGGUCAG [Fam1A.1 aminoacylation ribozyme variant] was 0.707

Reported self-aminoacylation for CCACACUUCGAGCGAUCGGUC [Fam1B.1 aminoacylation ribozyme variant] was 1.64

Reported self-aminoacylation for AAGUUUGCUAAUACUCGCUAG [Fam3.1 aminoacylation ribozyme variant] was 0.532

Reported self-aminoacylation for AUUCCCCUAGGUCAUCGGGGG [Fam2.2 aminoacylation ribozyme variant] was 8.39

Reported self-aminoacylation for CCACCCUUCAAGCUAUCGGUC [Fam1B.1 aminoacylation ribozyme variant] was 0.845

Reported self-aminoacylation for CUACUUCAAAUAAACGGUCUG [Fam1A.1 aminoacylation ribozyme variant] was 0.537

###

tested on: biotinyl-Trp-oxazolone; experiment: self-aminoacylation, catalytic enhancement (BWO) (fold over background); higher = more active; k-Seq, kA / k0A0; sequences stand for … in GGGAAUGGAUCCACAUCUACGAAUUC…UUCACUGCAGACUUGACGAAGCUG
Fewer inactive variants are shown than the library holds.
endpoint-label: self-aminoacylation
API note: the answer field is a bare number with no unit suffix.

[[record]]
sequence_data = "CCACAAUUCAAGCAAUCUGUC [Fam1B.1 aminoacylation ribozyme variant]"
value_observed = 0.559

[[record]]
sequence_data = "CCACACUUCAUGCAAUCGUUC [Fam1B.1 aminoacylation ribozyme variant]"
value_observed = 0.373

[[record]]
sequence_data = "AUUCACCUAUGUCAUCGGGCG [Fam2.2 aminoacylation ribozyme variant]"
value_observed = 2.2


# context switch: different sequence, same self-aminoacylation
Record AUUCAGCUAGGUAAUCGGGUG [Fam2.2 aminoacylation ribozyme variant] / biotinyl-Trp-oxazolone, self-aminoacylation recorded as 4.43

###

Recorded self-aminoacylation, one value per entry.
tested on: biotinyl-Met-oxazolone; experiment: self-aminoacylation, catalytic enhancement (BMO) (fold over background); higher = more active; k-Seq, kA / k0A0; sequences stand for … in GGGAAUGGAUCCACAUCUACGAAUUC…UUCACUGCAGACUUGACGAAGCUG
Variants at the floor of the assay were thinned out.
API note: the answer field is a bare number with no unit suffix.

Use these answered entries as a reference point.
[[record]]
sequence_data = "AUUCACCUAUGACAUCGGGUG [Fam2.2 aminoacylation ribozyme variant]"
value_observed = 3.24

[[record]]
sequence_data = "CCACACUUCAAGCAAUCUAUC [Fam1B.1 aminoacylation ribozyme variant]"
value_observed = 0.422

[[record]]
sequence_data = "GAGUUUGCUACUAGUCGCAAG [Fam3.1 aminoacylation ribozyme variant]"
value_observed = 1.04

[[record]]
sequence_data = "AUUACCCUGGUCAUCGCCUGA [Fam2.1 aminoacylation ribozyme variant]"
value_observed = 2.48

[[record]]
sequence_data = "AUGUUUGCUAAUAGUCGCAGG [Fam3.1 aminoacylation ribozyme variant]"
value_observed = 1.76

[[record]]
sequence_data = "CUUACCCUGAUCAUCGAGUGA [Fam2.1 aminoacylation ribozyme variant]"
value_observed = 7.49

[[record]]
sequence_data = "AUUACCCCGGUCAUCGAGUUA [Fam2.1 aminoacylation ribozyme variant]"
value_observed = 1.41

[[record]]
sequence_data = "AUUACCCCGAUCAUCGAGUGA [Fam2.1 aminoacylation ribozyme variant]"
value_observed = 7.24


# context switch: different sequence, same self-aminoacylation
Reported self-aminoacylation for AUUAACCUAUGUCAUCGGGUG [Fam2.2 aminoacylation ribozyme variant] was 5.3
